Observed pIC50 for Human HPK1, catalytic domain (Homo sapiens, UniProt Q92918), reported per entry below.
Bear in mind: pIC50 is minus log10 of a mol/L concentration; give just that figure.

Solved cases below.
• Cc1c(-c2cc3nc(Nc4cnn(CC(C)(C)O)c4Cl)ncc3c(N)c2F)cnc2c1NCCO2 [Example 2-18] = 8.70
• Cc1nn(C)cc1Nc1ncc2c(N)c(F)c(-c3cnc4c(c3C)NCCO4)cc2n1 [Example 2-34] = 10.24
• Cc1cnsc1Nc1ncc2c(N)c(F)c(-c3cnc4c(c3C)NCCO4)cc2n1 [Example 2-37] = 10.15

Problem: For Human HPK1, catalytic domain (Homo sapiens, UniProt Q92918), give the measured pIC50 of the entry CCC(=O)N1CC(n2cc(Nc3ncc4c(N)c(F)c(-c5cnc6c(c5C)NCCO6)cc4n3)cn2)C1 [Example 2-1]
Solution: 9.38

Problem: For Human HPK1, catalytic domain (Homo sapiens, UniProt Q92918), give the measured pIC50 of the entry Cc1c(-c2cc3nc(Nc4cnn(C56CC(C(C)(C)O)(C5)C6)c4)ncc3c(N)c2F)cnc2c1NCCO2 [Example 2-46]
Solution: 10.29

Problem: For Human HPK1, catalytic domain (Homo sapiens, UniProt Q92918), give the measured pIC50 of the entry Cc1c(-c2ccc3cnc(Nc4cc5n(n4)CCN(C(C)C)C(=O)C5)nc3c2)cnc2c1NCCO2 [Example 1-7]
Solution: 9.47

Problem: For Human HPK1, catalytic domain (Homo sapiens, UniProt Q92918), give the measured pIC50 of the entry CNC(=O)C12CC(n3cc(Nc4ncc5c(N)c(F)c(-c6cnc7c(c6C)NCCO7)cc5n4)cn3)(C1)C2 [Example 2-28]
Solution: 10.03

###

experimentalSystem: Human HPK1, catalytic domain (Homo sapiens, UniProt Q92918)
Sequence (Q92918 1-346): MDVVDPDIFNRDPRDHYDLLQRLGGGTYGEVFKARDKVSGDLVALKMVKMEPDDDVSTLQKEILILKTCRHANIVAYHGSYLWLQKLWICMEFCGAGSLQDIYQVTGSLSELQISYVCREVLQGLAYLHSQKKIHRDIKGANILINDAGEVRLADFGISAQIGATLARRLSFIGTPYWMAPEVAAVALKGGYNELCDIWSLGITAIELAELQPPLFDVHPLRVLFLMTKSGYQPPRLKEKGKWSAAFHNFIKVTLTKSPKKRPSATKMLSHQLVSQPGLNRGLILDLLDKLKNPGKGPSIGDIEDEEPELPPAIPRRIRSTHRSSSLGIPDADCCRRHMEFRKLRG
quantityKind: IC50 (nM)
Express the result in nM but write the number alone.

Problem: Name the recorded IC50 of the item Cc1c(-c2ccc3cnc(Nc4cnn(C5COC5)c4)nc3c2)cnc2c1NCCO2 in your answer.
Solution: 1.2

Problem: Name the recorded IC50 of the item Cc1c(-c2cc3nc(Nc4cnn(C)c4C)ncc3c(N)c2F)cnc2c1NCCO2 in your answer.
Solution: 0.051

Problem: Name the recorded IC50 of the item Cc1c(-c2cc3nc(Nc4cnn(C5CC6(C5)CN(C5(C)COC5)C6)c4)ncc3c(N)c2F)cnc2c1NCCO2 in your answer.
Solution: 0.14

Problem: Name the recorded IC50 of the item Cc1c(-c2cc3nc(Nc4cnn(C(C)C)c4)ncc3c(N)c2F)cnc2c1NCCO2 in your answer.
Solution: 0.16
